- EXPERIMENT_DESCRIPTION: qHTS of pediatric cancer cell lines to identify multiple opportunities for drug repurposing: Primary screen for BT-12 cells (AID 1347101); note: nearly all actives have a fitted effect of over 25% in size
- REPORTED_CONDITIONS: BT-12 viability, CellTiter-Glo luminescence, 48 h; series mostly up to 57.3 µM
Results filed as inconclusive are left out. Calls of active or inactive are those of the source. Calls come from the whole dose curve; as a rule, active = well fitted cell-killing curve with a large enough effect; inconclusive = small, poorly fitted or top-dose-only effect; inactive = flat fitted curve, though single readings scatter.
Respond using exactly one of the listed classes: class 1 for active, class 0 for inactive

Problem: Dear all, I need the recorded test outcome for O=C(NC1CCN(CCc2c[nH]c3ccccc23)CC1)c1ccccc1 , thank you.
Result: class 0

Problem: Each compound tested received a call. Report the one for Cc1ccccc1OCC(O)CO (stereo not drawn) .
Result: class 0

Problem: Which outcome did this test record for the compound Cc1ncc(CO)c(C=O)c1O ?
Result: class 0

Problem: Field: outcome | Entry: C=C[C@H]1CN2CC[C@H]1C[C@@H]2[C@@H](O)c1ccnc2ccc(OC)cc12
Result: class 0

Problem: Lab log entry: Cc1cc(NS(=O)(=O)c2ccc(N)cc2)nc(C)n1 — outcome as called in the assay?
Result: class 0

Problem: Which result was noted for this compound in the test: CCCCCCCCCCCCOCCOCCOCCOCCOCCOCCOCCOCCOCCO
Result: class 1

Problem: Could you check what this test reported for CCCCN=C(N)N=C(N)N ?
Result: class 0

Problem: Could you check what this test reported for CC(C)CCCC(C)N (stereo not drawn) ?
Result: class 0

Problem: Write down the call the test reported for this compound. Item: CN(C)CCC[C@@]1(c2ccc(F)cc2)OCc2cc(C#N)ccc21
Result: class 0

Problem: For this compound, state the assay outcome: CCCCCCCCCCCCCCCCO
Result: class 0

Problem: Recorded call for NS(=O)(=O)Cc1noc2ccccc12 ?
Result: class 0

Problem: Record lookup: outcome of this test for CCc1cc(Cl)c(OC)c(C(=O)NC[C@@H]2CCCN2CC)c1O ?
Result: class 0

Problem: Just curious, what result did N/C(=N\N=C\c1ccc(Cl)cc1)N/N=C/c1ccc(Cl)cc1 get here?
Result: class 0

Value source: PubChem BioAssay (NCATS)
